- assay.system: Glucocerebrosidase (Homo sapiens (Human))
- Sequence (P04062 40-536): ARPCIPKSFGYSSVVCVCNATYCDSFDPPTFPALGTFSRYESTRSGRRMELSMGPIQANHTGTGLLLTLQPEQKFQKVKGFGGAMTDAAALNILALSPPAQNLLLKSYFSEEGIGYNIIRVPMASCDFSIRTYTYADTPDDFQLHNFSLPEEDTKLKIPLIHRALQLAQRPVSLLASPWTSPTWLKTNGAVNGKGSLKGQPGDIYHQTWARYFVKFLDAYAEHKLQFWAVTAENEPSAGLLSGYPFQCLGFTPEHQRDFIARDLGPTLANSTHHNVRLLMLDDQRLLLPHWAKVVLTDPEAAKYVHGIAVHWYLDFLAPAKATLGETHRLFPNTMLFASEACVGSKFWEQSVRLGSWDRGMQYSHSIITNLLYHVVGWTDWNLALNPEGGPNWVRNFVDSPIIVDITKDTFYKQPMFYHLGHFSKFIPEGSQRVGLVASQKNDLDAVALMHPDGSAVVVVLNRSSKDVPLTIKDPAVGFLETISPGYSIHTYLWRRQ
- assay.overview: Glucocerebrosidase activity assay with blue substrate (4MU-Glc)
- Assay type: biochemical
- test.settings: marked inhibitor; read-out: Activity AC50 or IC50 (inhibitor)
// assign Satisfied if IC50 falls strictly below 2000 nM, else Not satisfied (ties count as Not satisfied)

| compound | assigned.class |
| --- | --- |
| c1cncc(-c2nc(NCCCCCCCCCCNc3nc(-c4cccnc4)nc4ccccc34)c3ccccc3n2)c1 [compound 108] | Satisfied |
| CC(COc1ccccc1)Nc1nc(-c2cccnc2)nc2ccccc12 (stereo not drawn) [compound 97] | Not satisfied |
| Oc1ccc2c(c1)C[C@@H](Nc1nc(-c3cccnc3)nc3ccccc13)CC2 [compound 98] | Satisfied |
| Nc1ccc(-c2nc(NC3Cc4ccccc4C3)c3ccccc3n2)cc1 [compound 142] | Satisfied |
| Brc1ccc2c(c1)CC(Nc1nc(-c3cccnc3)nc3ccccc13)C2 (stereo not drawn) [compound 100] | Satisfied |
| CC(CNc1nc(-c2cccnc2)nc2ccccc12)Oc1ccccc1 (stereo not drawn) [compound 92] | Not satisfied |
| c1ccc(COCCNc2nc(-c3cccnc3)nc3ccccc23)cc1 [compound 140] | Not satisfied |
| CC(C)(C)OC(=O)NCCC#Cc1ccc2c(c1)CC(Nc1nc(-c3cccnc3)nc3ccccc13)C2 (stereo not drawn) [compound 96] | Satisfied |
| CCCCCCCCNc1nc(-c2cccnc2)nc2ccccc12 [compound 95] | Not satisfied |
| NCCC#Cc1ccc2c(c1)CC(Nc1nc(-c3cccnc3)nc3ccccc13)C2 (stereo not drawn) [compound 99] | Satisfied |
| CN(CCOCc1ccccc1)c1nc(-c2cccnc2)nc2ccccc12 [compound 141] | Not satisfied |
| c1ccc(OCCCNc2nc(-c3cccnc3)nc3ccccc23)cc1 [compound 91] | Not satisfied |

###

- assay.system: Glucocerebrosidase (Homo sapiens (Human))
- assay.overview: Glucocerebrosidase activity assay with blue substrate (4MU-Glc)
- Type: biochemical
- test.settings: marked (inh), inhibitor; read-out: IC50 or AC50 (inh)
pIC50: −log10 of the molar value.
Assign y whenever pIC50 does not fall below 6; assign n whenever it does.

| molecule | assigned.class |
| --- | --- |
| FC1(F)CCC(Nc2nc(-c3cccnc3)nc3ccccc23)CC1 [compound 65] | y |
| CN(c1nc(-c2cccnc2)nc2ccccc12)[C@H]1CCc2ccccc2C1 [compound 84] | y |
| c1cncc(-c2nc(NCCC3CCCCC3)c3ccccc3n2)c1 [compound 63] | y |
| CC1CCC(Nc2nc(-c3cccnc3)nc3ccccc23)CC1 (stereo not drawn) [compound 77] | y |
| c1ccc(CCCNc2nc(-c3cccnc3)nc3ccccc23)cc1 [compound 52] | n |
| O=C(C1COc2ccccc2O1)N1CCN(c2nc(-c3cccnc3)nc3ccccc23)CC1 (stereo not drawn) [compound 29] | n |
| CN(c1nc(-c2cccnc2)nc2ccccc12)C1Cc2ccccc2C1 [compound 2] | n |
| c1cncc(-c2nc(NCC3CCCCC3)c3ccccc3n2)c1 [compound 57] | y |

###

- assay.system: Glucocerebrosidase (Homo sapiens (Human))
- assay.overview: Glucocerebrosidase activity assay with blue substrate (4MU-Glc)
- Assay type: biochemical
- test.settings: marked (inh), inhibitor; read-out: IC50 or AC50 (inh)
The threshold is 800 nM. Values of IC50 beneath it are tagged class 1; values meeting or exceeding it are tagged class 0.

| molecule | assigned.class |
| --- | --- |
| CC(C)N1CCC(Nc2nc(-c3cccnc3)nc3ccccc23)CC1 | class 0 |
| c1cncc(-c2nc(NC3CCCCC3)c3ccccc3n2)c1 | class 1 |
| c1ccc(CCCCNc2nc(-c3cccnc3)nc3ccccc23)cc1 | class 0 |
| CC1(C)CCC(Nc2nc(-c3cccnc3)nc3ccccc23)CC1 | class 1 |
| c1cncc(-c2nc(NCC3COc4ccccc4O3)c3ccccc3n2)c1 (stereo not shown) | class 0 |
| CC1CCCC(Nc2nc(-c3cccnc3)nc3ccccc23)C1 (stereo not shown) | class 1 |
| c1cncc(-c2nc(NC3CCCCCCC3)c3ccccc3n2)c1 | class 1 |
| c1cncc(-c2nc(NC3CCCCCC3)c3ccccc3n2)c1 | class 1 |
| c1cncc(-c2nc(NC3CC4CCC3C4)c3ccccc3n2)c1 (stereo not shown) | class 1 |

###

This section presents molecules with their documented IC50 values.
- assay.system: wild-type GCase (Homo sapiens (Human), UniProt P04062)
- Sequence (P04062 40-536): as above
- assay.overview: GCase enzyme activity assay (4MU-β-Glc, no taurocholate)
- Format: biochemical
- test.settings: pH 7.0, mean ± SD; read-out: IC50 pH 7.0
readout.type: IC50 (nM)

| molecule | assay.system | experimental.result |
| --- | --- | --- |
| c1ccc2c(c1)CC(Nc1nc(-c3ccsc3)nc3ccccc13)C2 [Compound 11g] | wild-type GCase (Homo sapiens (Human), UniProt P04062) | 6.6 |
| c1cncc(-c2nc(NC3Cc4ccccc4C3)c3ccccc3n2)c1 | wild-type GCase (Homo sapiens (Human), UniProt P04062) | 12.7 |
| c1ccc(-c2nc(NC3Cc4ccccc4C3)c3ccccc3n2)cc1 [Compound 11d] | wild-type GCase (Homo sapiens (Human), UniProt P04062) | 9.4 |
| c1csc(-c2nc(NC3Cc4ccccc4C3)c3ccccc3n2)c1 [Compound 11f] | wild-type GCase (Homo sapiens (Human), UniProt P04062) | 12.9 |

###

- assay.system: wild-type GCase (Homo sapiens (Human))
- assay.overview: GCase enzyme activity assay (4MU-β-Glc, no taurocholate)
- Type: biochemical
- test.settings: Table 2, pH 5.9, mean ± SD; read-out: IC50
# label = bin(measured IC50), where bins are low band: < 300 nM; middle band: ≥ 300 nM and < 900 nM; high band: ≥ 900 nM

| molecule | assigned.class |
| --- | --- |
| c1cncc(-c2nc(NC3CCCCCCC3)c3ccccc3n2)c1 [Compound 7a] | low band |
| c1cncc(-c2nc(NC3CCCCCC3)c3ccccc3n2)c1 [Compound 7b] | low band |
| c1cncc(-c2nc(NC3CC4CCC3C4)c3ccccc3n2)c1 (stereo not drawn) [Compound 7g] | low band |
| c1cncc(-c2nc(NC3CCCC3)c3ccccc3n2)c1 [Compound 7c] | middle band |
| c1cncc(-c2nc(NC3CC3)c3ccccc3n2)c1 [Compound 7e] | high band |
| c1cncc(-c2nc(NCC3CCCCC3)c3ccccc3n2)c1 [Compound 7h] | middle band |
| c1cncc(-c2nc(NCCC3CCCCC3)c3ccccc3n2)c1 [Compound 7i] | middle band |
| c1cncc(-c2nc(NC3CCC3)c3ccccc3n2)c1 [Compound 7d] | high band |

###

- assay.system: wild-type GCase (Homo sapiens (Human), UniProt P04062)
- assay.overview: GCase enzyme activity assay (4MU-β-Glc, no taurocholate)
- Type: biochemical
- test.settings: Table 3, pH 5.9, mean ± SD; read-out: IC50
I'd appreciate it if you marked entries 1 when IC50 is lower than 1 µM and 0 when it is not.

| structure | assay.system | assigned.class |
| --- | --- | --- |
| c1ccc(CCNc2nc(-c3cccnc3)nc3ccccc23)cc1 | wild-type GCase (Homo sapiens (Human), UniProt P04062) | 1 |
| c1ccc(CCCCNc2nc(-c3cccnc3)nc3ccccc23)cc1 | wild-type GCase (Homo sapiens (Human), UniProt P04062) | 0 |
| c1ccc(CNc2nc(-c3cccnc3)nc3ccccc23)cc1 | wild-type GCase (Homo sapiens (Human), UniProt P04062) | 0 |
| c1ccc(CCCNc2nc(-c3cccnc3)nc3ccccc23)cc1 | wild-type GCase (Homo sapiens (Human), UniProt P04062) | 0 |
| c1ccc(CCNc2nc(-c3cccnc3)nc3ccccc23)nc1 | wild-type GCase (Homo sapiens (Human), UniProt P04062) | 0 |
| c1cncc(CCNc2nc(-c3cccnc3)nc3ccccc23)c1 | wild-type GCase (Homo sapiens (Human), UniProt P04062) | 0 |

###

Reported IC50 is given for each of the following compounds.
- assay.system: wild-type GCase (Homo sapiens (Human), UniProt P04062)
- assay.overview: GCase enzyme activity assay (4MU-β-Glc, no taurocholate)
- Assay type: biochemical
- test.settings: Table 1, pH 5.9, mean ± SD; read-out: IC50
readout.type: IC50

| compound | assay.system | readout.type | experimental.result |
| --- | --- | --- | --- |
| CC1(C)CCC(Nc2nc(-c3cccnc3)nc3ccccc23)CC1 | wild-type GCase (Homo sapiens (Human), UniProt P04062) | IC50 | 0.431 µM |
| c1cncc(-c2nc(NC3CCCOC3)c3ccccc3n2)c1 (stereo not drawn) | wild-type GCase (Homo sapiens (Human), UniProt P04062) | IC50 | 0.891 µM |
| CC1CCC(Nc2nc(-c3cccnc3)nc3ccccc23)CC1 (single isomer, unassigned) [Compound 6c] | wild-type GCase (Homo sapiens (Human), UniProt P04062) | IC50 | 0.02 µM |
| COC1CCC(Nc2nc(-c3cccnc3)nc3ccccc23)CC1 (stereo not drawn) | wild-type GCase (Homo sapiens (Human), UniProt P04062) | IC50 | 0.251 µM |
| FC1(F)CCC(Nc2nc(-c3cccnc3)nc3ccccc23)CC1 | wild-type GCase (Homo sapiens (Human), UniProt P04062) | IC50 | 0.234 µM |
| c1ccc(CN2CCC(Nc3nc(-c4cccnc4)nc4ccccc34)CC2)cc1 | wild-type GCase (Homo sapiens (Human), UniProt P04062) | IC50 | 36.1 µM |
| CC1CCC(Nc2nc(-c3cccnc3)nc3ccccc23)CC1 (single isomer, unassigned) [Compound 6a] | wild-type GCase (Homo sapiens (Human), UniProt P04062) | IC50 | 0.056 µM |
| CCC1CCC(Nc2nc(-c3cccnc3)nc3ccccc23)CC1 (stereo not drawn) | wild-type GCase (Homo sapiens (Human), UniProt P04062) | IC50 | 0.126 µM |
| CC(C)N1CCC(Nc2nc(-c3cccnc3)nc3ccccc23)CC1 | wild-type GCase (Homo sapiens (Human), UniProt P04062) | IC50 | 33.2 µM |
